All figures here come from patent US5804583A.

tested-system: A II receptor
measurement-protocol: receptor binding test: displacement of 125I-Sar1-Ile8-AT II or [3H] AT II in the rat adrenal cortex
property: Ki
The number alone won't do; follow it with the unit.

# input Bench note: what Ki did CCCCc1c(Cc2ccc(-c3ccccc3-c3nnn[nH]3)cc2)c(=O)nc2n1C(C)C(=O)N2 (stereo not shown) show?
# output 5 nM
